system: MOLM-13 cells; experiment: MTS cellular viability assay in MOLM-13 cells; type: cell-based; conditions: Homo sapiens, 72 hr, 60 μM to 250 nM, n=3, ±S.D.
readout.kind: EC50 (nM)

Here are 2 molecules together with their reported answers.
COC(=O)CCCc1ccc(-n2cnc3cnc(Nc4cc(F)c(O)c(F)c4)nc32)cc1 [A1-13]    13900
CC(C)CCn1ccc2cnc(Nc3cc(F)c(O)c(F)c3)nc21 [A1-15]    1300

A. CC(C)CCn1cnc2cnc(Nc3cc(F)c(O)c(F)c3)nc21 [A1-2]
B. Oc1c(F)cc(Nc2ncc3ncn(-c4ccc(CCN5CCOCC5)cc4)c3n2)cc1F [A1-4]
C. CN1CCN(c2ccc(-n3ccc4cnc(Nc5cc(F)c(O)c(F)c5)nc43)cc2)CC1 [A1-17]
D. Oc1c(F)cc(Nc2ncc3ccn(-c4ccc(N5CCOCC5)cc4)c3n2)cc1F [A1-16]
Output the entries ranked by EC50 from maximum down to minimum. Sort and list the labels as requested.
B, A, D, C
(B: 1900 nM, A: 970 nM, D: 230 nM, C: 70 nM)
